- Tested on: A. baumannii R674
- assay_method_text: Chequerboard combination efficacy of adjuvant with antibiotics
- Type: cell-based
- run_conditions: antibiotic Rifampicin
Potentiation factor overview

compound	Potentiation factor
NCCCN(CCCN)C(=O)c1ccc(-c2ccccc2)cc1.O=C(O)C(F)(F)F.O=C(O)C(F)(F)F	4
NCCCC[C@H](N)C(=O)NCCCCCCN(CCCCCCNC(=O)[C@@H](N)CCCCN)C(=O)CC(c1ccccc1)c1ccccc1	>512
NCCCN(CCCN)C(=O)CC(c1ccccc1)c1ccccc1.O=C(O)C(F)(F)F.O=C(O)C(F)(F)F	64
NCCCC[C@H](N)C(=O)NCCCN(CCCNC(=O)[C@@H](N)CCCCN)C(=O)Cc1cccc2ccccc12	8
NCCCCCCN(CCCCCCN)C(=O)CC(c1ccccc1)c1ccccc1.O=C(O)C(F)(F)F.O=C(O)C(F)(F)F	128
NCCCC[C@H](N)C(=O)NCCCCCCN(CCCCCCNC(=O)[C@@H](N)CCCCN)C(=O)Cc1cccc2ccccc12	64
NCCCN(CCCN)CC(=O)NC1C2CC3CC(C2)CC1C3.O=C(O)C(F)(F)F.O=C(O)C(F)(F)F.O=C(O)C(F)(F)F (centres unmarked)	>256
NCCCC[C@H](N)C(=O)NCCCN(CCCNC(=O)[C@@H](N)CCCCN)CC(=O)NC1C2CC3CC(C2)CC1C3.O=C(O)C(F)(F)F.O=C(O)C(F)(F)F.O=C(O)C(F)(F)F.O=C(O)C(F)(F)F.O=C(O)C(F)(F)F (some centres unmarked)	64
